molecular target: ALK (human); assay: KINOMEscan competition binding; conditions: compound 10.0 µM
# Lookup of reported kinase still bound, per cent of control keyed by entry

- Record smiles: "Cc1cnc(-c2cnc(NCCNc3ccc(C#N)cn3)nc2-c2ccc(Cl)cc2Cl)[nH]1"
  Assay target: "ALK (human)"
  Measurement unit: "%"
  kinase still bound, per cent of control: 100
- Record smiles: "COc1ccc(CNC(=O)Nc2ncc([N+](=O)[O-])s2)cc1"
  Assay target: "ALK (human)"
  Measurement unit: "%"
  kinase still bound, per cent of control: 100
- Record smiles: "Cn1cc(C2=C(c3ccc(Cl)cc3Cl)C(=O)NC2=O)c2ccccc21"
  Assay target: "ALK (human)"
  Measurement unit: "%"
  kinase still bound, per cent of control: 100
- Record smiles: "O=C1Nc2cc(Br)ccc2/C1=C1/Nc2ccccc2/C1=N\\O"
  Assay target: "ALK (human)"
  Measurement unit: "%"
  kinase still bound, per cent of control: 44

###

system: ABL1 (human), P00519 [T315I]; assay: KINOMEscan competition binding; conditions: compound 10.0 µM
# Lookup of reported kinase still bound, per cent of control keyed by entry
Reported property: kinase still bound, per cent of control

- Record smiles: "Cn1cc(C2=C(c3ccc(Cl)cc3Cl)C(=O)NC2=O)c2ccccc21"
  Assay value: "80%"
- Record smiles: "O=C1Nc2cc(Br)ccc2/C1=C1/Nc2ccccc2/C1=N\\O"
  Assay value: "0.65%"
- Record smiles: "Cc1cnc(-c2cnc(NCCNc3ccc(C#N)cn3)nc2-c2ccc(Cl)cc2Cl)[nH]1"
  Assay value: "100%"
- Record smiles: "COc1ccc(CNC(=O)Nc2ncc([N+](=O)[O-])s2)cc1"
  Assay value: "100%"

###

target: PDGFRB (human) (UniProt P09619); experiment: KINOMEscan competition binding; conditions: compound 10.0 µM
Sequence (P09619 whole entry, looked up): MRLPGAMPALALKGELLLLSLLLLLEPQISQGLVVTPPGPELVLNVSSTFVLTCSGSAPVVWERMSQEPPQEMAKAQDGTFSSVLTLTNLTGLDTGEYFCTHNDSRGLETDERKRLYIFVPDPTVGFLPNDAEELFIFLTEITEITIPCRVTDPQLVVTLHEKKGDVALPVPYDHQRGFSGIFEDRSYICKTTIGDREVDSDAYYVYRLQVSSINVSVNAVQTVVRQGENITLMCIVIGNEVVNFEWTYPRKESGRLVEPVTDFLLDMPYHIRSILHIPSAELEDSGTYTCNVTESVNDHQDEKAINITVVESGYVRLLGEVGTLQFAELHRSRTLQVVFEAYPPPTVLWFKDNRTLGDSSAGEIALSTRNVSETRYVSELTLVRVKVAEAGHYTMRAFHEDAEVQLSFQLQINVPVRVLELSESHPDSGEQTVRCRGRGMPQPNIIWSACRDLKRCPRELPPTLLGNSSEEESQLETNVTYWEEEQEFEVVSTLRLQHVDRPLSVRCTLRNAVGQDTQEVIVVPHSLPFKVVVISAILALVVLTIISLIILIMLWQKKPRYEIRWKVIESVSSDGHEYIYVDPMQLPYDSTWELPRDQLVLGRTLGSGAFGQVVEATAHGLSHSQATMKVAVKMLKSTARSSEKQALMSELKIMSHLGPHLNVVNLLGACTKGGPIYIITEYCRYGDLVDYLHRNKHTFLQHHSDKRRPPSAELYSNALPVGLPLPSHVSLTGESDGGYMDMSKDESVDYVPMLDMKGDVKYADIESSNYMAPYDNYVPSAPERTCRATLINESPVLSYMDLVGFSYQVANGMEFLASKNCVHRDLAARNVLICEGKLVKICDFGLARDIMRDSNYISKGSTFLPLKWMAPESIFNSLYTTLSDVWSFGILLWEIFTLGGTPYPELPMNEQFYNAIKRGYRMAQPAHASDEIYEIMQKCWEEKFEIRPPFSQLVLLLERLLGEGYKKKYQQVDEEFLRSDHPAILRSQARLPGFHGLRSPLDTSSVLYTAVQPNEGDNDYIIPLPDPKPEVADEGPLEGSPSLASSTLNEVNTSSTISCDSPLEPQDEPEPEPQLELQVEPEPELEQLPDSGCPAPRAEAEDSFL

- Record smiles: "Cn1cc(C2=C(c3ccc(Cl)cc3Cl)C(=O)NC2=O)c2ccccc21"
  Measurement unit: "%"
  kinase still bound, per cent of control: 82
- Record smiles: "O=C1Nc2cc(Br)ccc2/C1=C1/Nc2ccccc2/C1=N\\O"
  Measurement unit: "%"
  kinase still bound, per cent of control: 0
- Record smiles: "COc1ccc(CNC(=O)Nc2ncc([N+](=O)[O-])s2)cc1"
  Measurement unit: "%"
  kinase still bound, per cent of control: 88
- Record smiles: "Cc1cnc(-c2cnc(NCCNc3ccc(C#N)cn3)nc2-c2ccc(Cl)cc2Cl)[nH]1"
  Measurement unit: "%"
  kinase still bound, per cent of control: 74

###

molecular target: CAMKK2 (human) (UniProt Q96RR4); test: KINOMEscan competition binding; settings: compound 10.0 µM
Sequence (Q96RR4 whole entry, looked up): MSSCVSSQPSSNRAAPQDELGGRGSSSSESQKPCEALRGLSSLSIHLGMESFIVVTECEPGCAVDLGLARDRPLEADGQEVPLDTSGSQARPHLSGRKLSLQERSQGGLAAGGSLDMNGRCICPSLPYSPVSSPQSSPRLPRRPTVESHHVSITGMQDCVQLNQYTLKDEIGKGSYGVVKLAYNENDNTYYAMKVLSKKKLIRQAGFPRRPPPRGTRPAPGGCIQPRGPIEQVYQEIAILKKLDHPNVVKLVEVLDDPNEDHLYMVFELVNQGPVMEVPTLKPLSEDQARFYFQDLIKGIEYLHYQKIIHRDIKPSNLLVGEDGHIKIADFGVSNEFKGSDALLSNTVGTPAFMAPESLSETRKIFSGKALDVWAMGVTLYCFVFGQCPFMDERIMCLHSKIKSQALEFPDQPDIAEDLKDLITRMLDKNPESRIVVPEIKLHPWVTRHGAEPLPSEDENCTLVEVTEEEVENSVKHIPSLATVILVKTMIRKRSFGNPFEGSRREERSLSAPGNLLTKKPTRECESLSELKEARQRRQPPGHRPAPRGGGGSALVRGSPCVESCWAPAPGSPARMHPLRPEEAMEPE

- Record smiles: "O=C1Nc2cc(Br)ccc2/C1=C1/Nc2ccccc2/C1=N\\O"
  kinase still bound, per cent of control, %: 37
- Record smiles: "COc1ccc(CNC(=O)Nc2ncc([N+](=O)[O-])s2)cc1"
  kinase still bound, per cent of control, %: 100
- Record smiles: "Cc1cnc(-c2cnc(NCCNc3ccc(C#N)cn3)nc2-c2ccc(Cl)cc2Cl)[nH]1"
  kinase still bound, per cent of control, %: 100
- Record smiles: "Cn1cc(C2=C(c3ccc(Cl)cc3Cl)C(=O)NC2=O)c2ccccc21"
  kinase still bound, per cent of control, %: 72

###

# Lookup of reported kinase still bound, per cent of control keyed by entry
molecular target: SIK3 (human); assay: KINOMEscan competition binding; conditions: compound 10.0 µM

- Record smiles: "Cn1cc(C2=C(c3ccc(Cl)cc3Cl)C(=O)NC2=O)c2ccccc21"
  Measurement unit: "%"
  kinase still bound, per cent of control: 86
- Record smiles: "Cc1cnc(-c2cnc(NCCNc3ccc(C#N)cn3)nc2-c2ccc(Cl)cc2Cl)[nH]1"
  Measurement unit: "%"
  kinase still bound, per cent of control: 84
- Record smiles: "COc1ccc(CNC(=O)Nc2ncc([N+](=O)[O-])s2)cc1"
  Measurement unit: "%"
  kinase still bound, per cent of control: 77
- Record smiles: "O=C1Nc2cc(Br)ccc2/C1=C1/Nc2ccccc2/C1=N\\O"
  Measurement unit: "%"
  kinase still bound, per cent of control: 24

###

test system: RET (human), P07949 [V804L]; assay: KINOMEscan competition binding; settings: compound 10.0 µM
Sequence (P07949 whole entry V804L, looked up): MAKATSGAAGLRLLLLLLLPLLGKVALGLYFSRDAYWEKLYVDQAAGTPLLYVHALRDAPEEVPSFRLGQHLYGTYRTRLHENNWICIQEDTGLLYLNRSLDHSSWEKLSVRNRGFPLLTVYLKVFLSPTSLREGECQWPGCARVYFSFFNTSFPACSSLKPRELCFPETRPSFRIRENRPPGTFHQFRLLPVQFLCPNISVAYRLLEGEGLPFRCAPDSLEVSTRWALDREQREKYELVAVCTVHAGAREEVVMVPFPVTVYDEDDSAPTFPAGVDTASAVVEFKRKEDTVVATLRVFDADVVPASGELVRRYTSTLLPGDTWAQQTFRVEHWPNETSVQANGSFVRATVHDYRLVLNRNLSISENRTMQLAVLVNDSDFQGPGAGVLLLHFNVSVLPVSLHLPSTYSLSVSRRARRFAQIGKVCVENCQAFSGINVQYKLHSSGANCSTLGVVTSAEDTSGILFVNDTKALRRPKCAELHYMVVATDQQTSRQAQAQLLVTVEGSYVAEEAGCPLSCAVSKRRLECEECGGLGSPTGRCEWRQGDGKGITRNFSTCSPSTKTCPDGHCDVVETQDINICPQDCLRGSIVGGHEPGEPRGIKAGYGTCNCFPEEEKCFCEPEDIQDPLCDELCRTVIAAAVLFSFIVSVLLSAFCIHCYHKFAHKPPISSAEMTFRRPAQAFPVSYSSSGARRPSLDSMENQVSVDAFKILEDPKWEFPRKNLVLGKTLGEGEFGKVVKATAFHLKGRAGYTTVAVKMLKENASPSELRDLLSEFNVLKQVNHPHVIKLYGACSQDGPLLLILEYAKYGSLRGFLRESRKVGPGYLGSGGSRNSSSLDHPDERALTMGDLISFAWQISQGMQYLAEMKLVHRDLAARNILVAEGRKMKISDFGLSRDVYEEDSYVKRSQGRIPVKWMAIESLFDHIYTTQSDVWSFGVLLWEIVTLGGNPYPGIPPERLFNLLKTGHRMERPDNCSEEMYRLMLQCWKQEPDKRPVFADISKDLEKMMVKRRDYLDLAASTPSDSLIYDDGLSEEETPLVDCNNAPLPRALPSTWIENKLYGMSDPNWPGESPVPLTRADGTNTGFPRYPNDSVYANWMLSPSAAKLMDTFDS

- Record smiles: "O=C1Nc2cc(Br)ccc2/C1=C1/Nc2ccccc2/C1=N\\O"
  Measurement unit: "%"
  kinase still bound, per cent of control: 0
- Record smiles: "Cc1cnc(-c2cnc(NCCNc3ccc(C#N)cn3)nc2-c2ccc(Cl)cc2Cl)[nH]1"
  Measurement unit: "%"
  kinase still bound, per cent of control: 100
- Record smiles: "COc1ccc(CNC(=O)Nc2ncc([N+](=O)[O-])s2)cc1"
  Measurement unit: "%"
  kinase still bound, per cent of control: 100
- Record smiles: "Cn1cc(C2=C(c3ccc(Cl)cc3Cl)C(=O)NC2=O)c2ccccc21"
  Measurement unit: "%"
  kinase still bound, per cent of control: 100

###

# Lookup of reported kinase still bound, per cent of control keyed by entry
target: DAPK2 (human) (UniProt Q9UIK4); assay: KINOMEscan competition binding; conditions: compound 10.0 µM
Sequence (Q9UIK4 whole entry, looked up): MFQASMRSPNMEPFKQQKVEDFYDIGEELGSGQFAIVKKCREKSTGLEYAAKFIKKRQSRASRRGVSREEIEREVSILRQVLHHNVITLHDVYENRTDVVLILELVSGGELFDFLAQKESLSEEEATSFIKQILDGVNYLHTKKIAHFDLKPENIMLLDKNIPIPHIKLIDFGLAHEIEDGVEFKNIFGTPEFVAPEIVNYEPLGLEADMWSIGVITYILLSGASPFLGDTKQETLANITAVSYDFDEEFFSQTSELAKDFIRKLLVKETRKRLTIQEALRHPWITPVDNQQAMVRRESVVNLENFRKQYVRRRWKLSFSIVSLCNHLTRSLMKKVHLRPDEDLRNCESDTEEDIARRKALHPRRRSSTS
Reported property: kinase still bound, per cent of control (%)

- Record smiles: "Cc1cnc(-c2cnc(NCCNc3ccc(C#N)cn3)nc2-c2ccc(Cl)cc2Cl)[nH]1"
  Assay target: "DAPK2 (human) (UniProt Q9UIK4)"
  Measurement unit: "%"
  Assay value: 94
- Record smiles: "COc1ccc(CNC(=O)Nc2ncc([N+](=O)[O-])s2)cc1"
  Assay target: "DAPK2 (human) (UniProt Q9UIK4)"
  Measurement unit: "%"
  Assay value: 93
- Record smiles: "Cn1cc(C2=C(c3ccc(Cl)cc3Cl)C(=O)NC2=O)c2ccccc21"
  Assay target: "DAPK2 (human) (UniProt Q9UIK4)"
  Measurement unit: "%"
  Assay value: 67
- Record smiles: "O=C1Nc2cc(Br)ccc2/C1=C1/Nc2ccccc2/C1=N\\O"
  Assay target: "DAPK2 (human) (UniProt Q9UIK4)"
  Measurement unit: "%"
  Assay value: 2.6

###

biological target: NIM1 (human); experiment: KINOMEscan competition binding; details: compound 10.0 µM
Reported property: kinase still bound, per cent of control

- Record smiles: "Cc1cnc(-c2cnc(NCCNc3ccc(C#N)cn3)nc2-c2ccc(Cl)cc2Cl)[nH]1"
  Assay target: "NIM1 (human)"
  Reported property: "kinase still bound, per cent of control"
  Assay value: "100%"
- Record smiles: "O=C1Nc2cc(Br)ccc2/C1=C1/Nc2ccccc2/C1=N\\O"
  Assay target: "NIM1 (human)"
  Reported property: "kinase still bound, per cent of control"
  Assay value: "85%"
- Record smiles: "Cn1cc(C2=C(c3ccc(Cl)cc3Cl)C(=O)NC2=O)c2ccccc21"
  Assay target: "NIM1 (human)"
  Reported property: "kinase still bound, per cent of control"
  Assay value: "100%"
- Record smiles: "COc1ccc(CNC(=O)Nc2ncc([N+](=O)[O-])s2)cc1"
  Assay target: "NIM1 (human)"
  Reported property: "kinase still bound, per cent of control"
  Assay value: "100%"

###

target: CDK14 (human); test: KINOMEscan competition binding; details: compound 10.0 µM
# Lookup of reported kinase still bound, per cent of control keyed by entry

- Record smiles: "Cn1cc(C2=C(c3ccc(Cl)cc3Cl)C(=O)NC2=O)c2ccccc21"
  Assay target: "CDK14 (human)"
  kinase still bound, per cent of control: "29%"
- Record smiles: "COc1ccc(CNC(=O)Nc2ncc([N+](=O)[O-])s2)cc1"
  Assay target: "CDK14 (human)"
  kinase still bound, per cent of control: "95%"
- Record smiles: "O=C1Nc2cc(Br)ccc2/C1=C1/Nc2ccccc2/C1=N\\O"
  Assay target: "CDK14 (human)"
  kinase still bound, per cent of control: "18%"
- Record smiles: "Cc1cnc(-c2cnc(NCCNc3ccc(C#N)cn3)nc2-c2ccc(Cl)cc2Cl)[nH]1"
  Assay target: "CDK14 (human)"
  kinase still bound, per cent of control: "100%"

###

# Lookup of reported kinase still bound, per cent of control keyed by entry
target: HIPK3 (human); experiment: KINOMEscan competition binding; conditions: compound 10.0 µM
Reported property: kinase still bound, per cent of control (%)

- Record smiles: "Cc1cnc(-c2cnc(NCCNc3ccc(C#N)cn3)nc2-c2ccc(Cl)cc2Cl)[nH]1"
  Assay target: "HIPK3 (human)"
  Reported property: "kinase still bound, per cent of control"
  Assay value: 100
- Record smiles: "COc1ccc(CNC(=O)Nc2ncc([N+](=O)[O-])s2)cc1"
  Assay target: "HIPK3 (human)"
  Reported property: "kinase still bound, per cent of control"
  Assay value: 100
- Record smiles: "O=C1Nc2cc(Br)ccc2/C1=C1/Nc2ccccc2/C1=N\\O"
  Assay target: "HIPK3 (human)"
  Reported property: "kinase still bound, per cent of control"
  Assay value: 12
- Record smiles: "Cn1cc(C2=C(c3ccc(Cl)cc3Cl)C(=O)NC2=O)c2ccccc21"
  Assay target: "HIPK3 (human)"
  Reported property: "kinase still bound, per cent of control"
  Assay value: 56
